B1: TMEM106C (parent)
chain: YVTTNVSLIPPRSEQLVNFTGKAE

variants of: B1; assay: protein stability index of a GFP-peptide fusion (GPS, HEK-293T) (PSI 1-6); higher = more stable; settings: c terminus: a fixed tail appended;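 note: lentivirally expressed fusions sorted by FACS into six bins by GFP to DsRed ratio, PSI derived from sequencing read proportions per bin multiplied by bin number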
Property: protein stability index; scope: individual variants
Write the value as a bare number.

>  <variant_key>
K22I

>  <protein stability index>
1.88

$$$$
>  <variant_key>
T20G

>  <protein stability index>
2.13

$$$$
>  <variant_key>
Q15R

>  <protein stability index>
1.74

$$$$

Attention now turns to another entry.
What value of protein stability index has been reported for the following variant? V6M
1.75
